I'd appreciate it if you could supply z-score values for the items below.
# TEST PROTOCOL: basal HepG2 mitochondrial membrane potential changes, profiling panel, cell-based, JC-1 fluorescence, 24 h, 100 nL compound (AID 1167); also: test concentration not given here
# MEASUREMENT CONDITIONS: higher = more signal
One number for each entry.

Known results for molecules:
{"columns": ["MOLECULE", "RESULT"],
 "data": [
  ["C=CC[C@@]1(C(=O)NCC(O)CO)N=C(c2ccc(OCCCO)cc2)O[C@@H]1c1ccccc1N=[N+]=[N-] (some centres undefined)", 0.582],
  ["COC(=O)C(CC#Cc1ccc2c(c1)[C@]1(C(=O)N2)[C@H](c2ccc(OCCO)cc2)N2[C@H](c3ccccc3)[C@H](c3ccccc3)OC(=O)[C@H]2[C@@H]1C(=O)NC[C@H](O)c1ccccc1)C(=O)OC", -1.13]
]}

Give me z-score for each of these molecules, listed below.
1. CCCCC=C[C@@H](NC(=O)c1cccs1)c1ccccc1
2. COc1ccc(C#Cc2ccc3c(c2)[C@]2(C(=O)N3)[C@H](c3ccc(O)cc3)N3[C@H](c4ccccc4)[C@H](c4ccccc4)OC(=O)[C@H]3[C@@H]2C(=O)N2CCCCCCC2)cc1

[out]
[-0.503, 0.269]
